Target: 17β-HSD3 (Homo sapiens, UniProt P37058)
Construct: expressed in transfected cells; host or cells: MCF-7 cells stably expressing 17β-HSD3
Sequence (P37058 whole entry): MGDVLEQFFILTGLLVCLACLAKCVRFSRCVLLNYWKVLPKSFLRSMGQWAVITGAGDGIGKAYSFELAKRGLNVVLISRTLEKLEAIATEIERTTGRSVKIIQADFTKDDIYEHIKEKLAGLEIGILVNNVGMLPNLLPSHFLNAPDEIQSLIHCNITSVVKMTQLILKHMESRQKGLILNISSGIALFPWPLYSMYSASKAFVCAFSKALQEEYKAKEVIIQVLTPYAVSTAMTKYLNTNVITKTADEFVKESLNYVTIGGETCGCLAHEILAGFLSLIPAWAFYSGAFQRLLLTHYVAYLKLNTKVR
Assay: Inhibition of 17β-HSD3 in MCF-7 cell lines stably expressing the enzyme (HPLC, tritium labeled androstenedione)
Type: cell-based
Conditions: MCF7; 10 µM; MCF-7 cells expressing 17β-HSD3, androstenedione 2 nM
In this section we review reported inhibition at 10 µM values for a set of molecules.
assay.readout: inhibition at 10 µM (%)

                                   molecule  reported
0  CC(C)Cc1cn(CC[C@@H]2CC(=O)[C@@]3(C)CC[C@@H]4c5ccc(O)cc5CC[C@H]4[C@H]23)nn1 [Compound 12]        37
1  CC(C)CCc1cn(CCC[C@@H]2CC(=O)[C@@]3(C)CC[C@@H]4c5ccc(O)cc5CC[C@H]4[C@H]23)nn1 [Compound 17]        50
2  CCCCn1cc(CCCC2CC(=O)[C@@]3(C)CC[C@@H]4c5ccc(O)cc5CC[C@H]4[C@H]23)nn1 (stereo partly shown) [Compound 300]        61
3  C[C@]12CC[C@@H]3c4ccc(O)cc4CC[C@H]3[C@@H]1[C@H](CCn1cc(-c3ccccc3C(F)(F)F)nn1)CC2=O [Compound 19]        52

Provenance of the data: patent EP2125859B1
